Biological target: Tubulin
Experiment: Inhibition of tubulin (unknown origin) polymerization incubated 15 mins prior to GTP addition by spectrophotometry
assay readout: pIC50
Here pIC50 is given on a logarithmic scale as minus log10 of the concentration in mol/L.

Task: What value of pIC50 has been reported for the following compound? COc1cc(C(=O)c2ccn(-c3ccccc3O)c2)cc(OC)c1OC
Output: 5.77

Task: Same again, this time with COc1ccc(-n2ccc(C(=O)c3cc(OC)c(OC)c(OC)c3)c2)cc1O
Output: 5.89

Task: Same again, this time with COc1ccc(-n2ccc(C(=O)c3cc(OC)c(OC)c(OC)c3)c2)cc1N
Output: 5.89

Task: Same again, this time with COc1cc(C(=O)c2ccn(-c3cccc(Cl)c3)c2)cc(OC)c1OC
Output: 5.66

Task: Same again, this time with COc1cc(C(=O)c2ccn(-c3cccc(N4CCCC4)c3)c2)cc(OC)c1OC
Output: 5.60
